src = ChEMBL document CHEMBL1152550

I'd appreciate it if you could supply pIC50 values for the items below.
# Tested on: SK-OV-3
# Assay text: Cytotoxicity against human SKOV3 cells after 48 hrs by XTT assay
# Assay type: functional, cell-based
# Test parameters: SK-OV-3, 48 h
Give bare numbers, as −log10 of the molar value.

Q. Report pIC50 for `O=C(Nc1ccncc1)C(=O)c1cn(Cc2ccc(Cl)cc2)c2ccccc12` please.
A. 7.11

# input for lookup
Q. Could you tell me which pIC50 is on file for `O=C(Nc1ccncc1)C(=O)c1cn(Cc2ccc(F)cc2)c2ccccc12` ?
A. 6.34

====

Task for the reader: assign each of the following compounds its reported IC50.
# Tested on: SK-OV-3
# Assay text: Cytotoxicity against human SKOV3 cells after 48 hrs by XTT assay
# Format: functional, cell-based
# Test parameters: SK-OV-3, 48 h

Example cases with answers are listed next.
Q. Record request: IC50 value, item `O=C(Nc1ccc(F)cc1)C(=O)c1cn(Cc2ccc(F)cc2)c2ccccc12`
A. > 10 µM

Q. Also `O=C(Nc1ccc([N+](=O)[O-])cc1)C(=O)c1cn(Cc2ccc(F)cc2)c2ccccc12` , if possible.
A. > 10 µM

New cases:
Q. Need IC50 of `N#Cc1ccc(NC(=O)C(=O)c2cn(Cc3ccc(F)cc3)c3ccccc23)cc1` , thanks.
A. > 10 µM
